Target System: Protein Tat (Human immunodeficiency virus type 1 group M subtype B (isolate HXB2), UniProt P04608)
Sequence (P04608 whole entry): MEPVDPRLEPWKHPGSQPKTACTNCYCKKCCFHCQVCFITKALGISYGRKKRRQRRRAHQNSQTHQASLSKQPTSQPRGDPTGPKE
Experiment Description: Inhibition of Tat-mediated transcription of viral promoter in 293 T cells transfected with HIV1 tat by luciferase reporter gene assay
Experimental Readout: pEC50
Give bare numbers, as −log10 of the molar value.

[[record]]
compound = "Cc1ccc(NCCCN)c([N+](=O)[O-])c1"
recorded_result = 5.00


Q: Look up pEC50: CC(Cl)c1ccc(NCCCN)c([N+](=O)[O-])c1 (configuration not stated)
Ans: 6.00

meta.source: BindingDB's records for doi:10.1021/jm070014g
